Hey, just so you know, these numbers are from the supplement of paper PMC11208160.

# assay method text: recombinant UMI read abundance after kanamycin selection (control-corrected) (log10(CPM+1)); higher = more efficient recombination; extreme values may be limits of the assay; sequences stand for … in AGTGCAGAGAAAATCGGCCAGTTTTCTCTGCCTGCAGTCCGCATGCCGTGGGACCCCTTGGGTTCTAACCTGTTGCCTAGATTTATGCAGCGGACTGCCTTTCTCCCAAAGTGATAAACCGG…AGGTTGGTTTCACT; site = the 11-nt donor;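 note: IS621 bridge recombinase in Escherichia coli cells against a fixed T5 target plasmid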
Please use Y whenever recombinant UMI read abundance (log10) is not below 0.6, and N whenever it is.

1. GAAGTTTCATGGACCGGTTTTCCCGGTAATCCGTATTTGTT (site GAAGGTTCTAA) :: N
2. ATTGAGGCATGGACCGGTTTTCCCGGTAATCCGTATTTGGT (site ATTGAGTCTAC) :: Y
3. CGGGAGCCATGGACCGGTTTTCCCGGTAATCCGTATTTGCC (site CGGGAGTCTGG) :: Y
4. ATGTAGGCATGGACCGGTTTTCCCGGTAATCCGTATTTGGA (site ATGTAGGCTTC) :: Y
5. ACTACAACATGGACCGGTTTTCCCGGTAATCCGTATTTGAG (site ACTAAAACTCT) :: N
6. CGAAAGACATGGACCGGTTTTCCCGGTAATCCGTATTTGGT (site CGAAAGACTAC) :: Y

Pending sequence:
Inquiry: recombinant UMI read abundance (log10) >= 0.6 for CAGAAGCCATGGACCGGTTTTCCCGGTAATCCGTATTTGTT (site CGGAATCCTAA) ?
Reply text: N
